Please go through the items and note down their NADPH fluorescence slope.
- experimentalSystem: Voltage-gated potassium channel subunit beta-2 (Rattus norvegicus) (UniProt P62483)
- Sequence (P62483 whole entry, looked up): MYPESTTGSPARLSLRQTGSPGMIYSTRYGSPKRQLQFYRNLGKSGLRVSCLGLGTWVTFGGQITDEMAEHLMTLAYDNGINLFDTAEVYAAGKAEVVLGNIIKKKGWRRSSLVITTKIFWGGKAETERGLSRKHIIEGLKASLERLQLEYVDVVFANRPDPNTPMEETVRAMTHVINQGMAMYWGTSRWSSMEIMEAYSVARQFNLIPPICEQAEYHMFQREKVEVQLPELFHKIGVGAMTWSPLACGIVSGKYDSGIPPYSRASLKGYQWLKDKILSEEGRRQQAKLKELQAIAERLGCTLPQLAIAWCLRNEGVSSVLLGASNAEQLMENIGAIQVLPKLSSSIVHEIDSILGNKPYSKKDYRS
- measurementDescription: KvBeta positive modulators, primary screen, biochemical, NADPH fluorescence (AID 623);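 note: fluorescence intensity change per second fitted from 20 to 320 s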
- experimentalParameters: Recombinant KvBeta, NADPH fluorescence decrease slope, 10 min; at 10 µM; hits give low values
Field format: numeric only.

## Task Entry O=C(Nc1ccc(CN2CCOCC2)cc1)c1cc2ccccn2n1 has what NADPH fluorescence slope?
## Result -1.7e-05

## Task Recorded NADPH fluorescence slope of Cc1cc(C)n(S(=O)(=O)/C=C/c2ccccc2)n1 , please.
## Result -0.000103

## Task Dear colleague, I am looking for the recorded NADPH fluorescence slope of the following molecule: COc1ccc(OC)c(NS(=O)(=O)c2ccc(N3CCCC3=O)cc2)c1
## Result -0.000177

## Task State the recorded NADPH fluorescence slope for this entry: COc1ccc(-c2nc3c(n2O)CCC/C3=N\O)cc1
## Result -7.6e-05

## Task Fill blank: measured NADPH fluorescence slope of the molecule O=C(COC(=O)c1cc(-c2ccco2)nc2ccccc12)NCc1ccc2c(c1)OCO2 is ____.
## Result -1.1e-05

## Task Can you look up the measured NADPH fluorescence slope of CN(C)CCNC(=O)C12CC3(C)CC(C)(CC(C)(C3)C1)C2 for me?
## Result -0.000122
